target: feline FcRn (FCN-F82W3, Acrobiosystems) (feline); assay: SPR Carterra, IgG coupled, pH 6.0
Assay Endpoint: Kd (nM)
Answers are plain numbers, in nM.

Binder	Value Observed
anti-NGF feline IgG1a, Fc variant S252Y (antibody, part only; not given: Anti-NGF variable domains, not shown: another chain or arm of the molecule; small tags and cut ends) Fc: PPEMLGGPSIFIFPPKPKDTLYISRTPEVTCLVVDLGPDDSDVQITWFVDNTQVYTAKTSPREEQFNSTYRVVSVLPILHQDWLKGKEFKCKVNSKSLPSPIERTISKAKGQPHEPQVYVLPPAQEELSRNKVSVTCLIKSFHPPDIAVEWEITGQPEPENNYRTTPPQLDSDGTYFVYSKLSVDRSHWQRGNTYTCSVSHEALHSHHTQKSLTQSPGK	9.8

# return Kd for each item in the list
1. anti-NGF feline IgG1a, Fc variant S434Y, T286D (antibody, part only; not given: anti-NGF variable domains, not shown: another chain or arm of the molecule; small tags and cut ends) Fc: PPEMLGGPSIFIFPPKPKDTLSISRTPEVTCLVVDLGPDDSDVQITWFVDNTQVYDAKTSPREEQFNSTYRVVSVLPILHQDWLKGKEFKCKVNSKSLPSPIERTISKAKGQPHEPQVYVLPPAQEELSRNKVSVTCLIKSFHPPDIAVEWEITGQPEPENNYRTTPPQLDSDGTYFVYSKLSVDRSHWQRGNTYTCSVSHEALHYHHTQKSLTQSPGK
2. anti-NGF feline IgG1a, Fc variant R301L, E380V, T437L (antibody, part only; not given: anti-NGF variable domains, light chain, not shown: another chain or arm of the molecule; small tags and cut ends) Fc: PPEMLGGPSIFIFPPKPKDTLSISRTPEVTCLVVDLGPDDSDVQITWFVDNTQVYTAKTSPREEQFNSTYLVVSVLPILHQDWLKGKEFKCKVNSKSLPSPIERTISKAKGQPHEPQVYVLPPAQEELSRNKVSVTCLIKSFHPPDIAVVWEITGQPEPENNYRTTPPQLDSDGTYFVYSKLSVDRSHWQRGNTYTCSVSHEALHSHHLQKSLTQSPGK

1. 2.9
2. 10.7
